The origin of these recorded values is PubChem BioAssay (NCATS).

- measurement_notes: Cell Viability - LYMP2-006 (AID 978);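 further: cells exposed to compound for 24 hours; nearly all actives have a fitted effect of over 60% in size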
- reported_conditions: LYMP2-006 lymphoblastoid cell viability, qHTS; series mostly up to 92.2 µM
Results filed as inconclusive are left out. Calls of active or inactive are those of the source. The call rests on the fitted dose curve; in most records, active means well fitted cell-killing curve with a large enough effect; inconclusive means small, poorly fitted or top-dose-only effect; inactive means flat fitted curve, though single readings scatter.
metric_name: outcome

{"molecule": "CCCCOCCO", "obs_value": "inactive"}
{"molecule": "CCCCCCCCCCCC(=O)O", "obs_value": "inactive"}
{"molecule": "CCC(O)OC(O)CC (centres undefined)", "obs_value": "inactive"}
{"molecule": "CCCCC(CC)CN (centres undefined)", "obs_value": "inactive"}
{"molecule": "COc1ccc(/C=C/c2cc(OC)cc(=O)o2)cc1", "obs_value": "inactive"}
{"molecule": "C=CCc1ccc(OC)c(OC)c1", "obs_value": "inactive"}
{"molecule": "CCO", "obs_value": "inactive"}
{"molecule": "Cc1ccc([N+](=O)[O-])c(C)c1", "obs_value": "inactive"}
{"molecule": "CC(=O)OC/C=C(\\C)CCC=C(C)C", "obs_value": "inactive"}
